Parameter: protein stability index. Scope: all listed entries.
- ASSAY_REMARKS: protein stability index of a GFP-peptide fusion (GPS, HEK-293T) (PSI 1-6); higher = more stable;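 also: 24-mer peptide tiles fused after GFP, lentivirally expressed, FACS-sorted into six equal bins by GFP/DsRed ratio, decoded by Illumina sequencing, PSI is the read-weighted mean bin number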
- ASSAY_CONDITIONS: treatment: MLN4924 1 uM, 8 h; c terminus: a fixed tail appended
ENDPOINT_LABEL: protein stability index

- SEQ_TEXT: "IVVATLPIPVVFVLRHFHLLSDGS [SLC6A17]"
  ENDPOINT_LABEL: "protein stability index"
  MEAS_VALUE: 3.21
- SEQ_TEXT: "HGPISEVLLIKDRTSKSRGFAFIT [RBMY1A1]"
  ENDPOINT_LABEL: "protein stability index"
  MEAS_VALUE: 2.66
- SEQ_TEXT: "EARPIETYQVHDYLRSKLCSLYEN [PPP2R2C]"
  ENDPOINT_LABEL: "protein stability index"
  MEAS_VALUE: 3.02
- SEQ_TEXT: "LILSIIFIEGYCTPEEVIWEALNM [MAGEA10]"
  ENDPOINT_LABEL: "protein stability index"
  MEAS_VALUE: 3.21
- SEQ_TEXT: "VCVGSDVTSIHKYMVRRYFNKPSR [MYORG]"
  ENDPOINT_LABEL: "protein stability index"
  MEAS_VALUE: 2.34
- SEQ_TEXT: "HELTAKYLNYYQGMLDVADESLTD [P3H4]"
  ENDPOINT_LABEL: "protein stability index"
  MEAS_VALUE: 3.89
- SEQ_TEXT: "KTHSQELMKESLQTGDLLSTFHTI [PLAGL1]"
  ENDPOINT_LABEL: "protein stability index"
  MEAS_VALUE: 3.64
- SEQ_TEXT: "VFEYCDHTLLNELERNPNGVADGV [CDKL4]"
  ENDPOINT_LABEL: "protein stability index"
  MEAS_VALUE: 4.03
- SEQ_TEXT: "SVRGYMMSKQRERQLRRRALHPER [RETREG3]"
  ENDPOINT_LABEL: "protein stability index"
  MEAS_VALUE: 3.73
- SEQ_TEXT: "TTPPGHGTLDNSKSMKPYNYCSAY [NEUROD6]"
  ENDPOINT_LABEL: "protein stability index"
  MEAS_VALUE: 3.25
- SEQ_TEXT: "QRLLNTPRRKKLKSTSKYIYQTLF [GMCL1]"
  ENDPOINT_LABEL: "protein stability index"
  MEAS_VALUE: 1.75
- SEQ_TEXT: "CQPRNLDKERAVLLQRRKRENMSD [KMT2E]"
  ENDPOINT_LABEL: "protein stability index"
  MEAS_VALUE: 4.29

====

- ASSAY_REMARKS: protein stability index of a GFP-peptide fusion (GPS, HEK-293T) (PSI 1-6); higher = more stable
- ASSAY_CONDITIONS: treatment: MLN4924 1 uM, 8 h; c terminus: a fixed tail appended
Listing of entries alongside the reported protein stability index.

- SEQ_TEXT: "ISNGDFESYTKMCDPGMTAFEPEA [CAMK2A]"
  protein stability index: 4.66
- SEQ_TEXT: "PQTVGVGRARFTTYEVRMRTNLPI [SNX12]"
  protein stability index: 2.6
- SEQ_TEXT: "QYSGMLDCARRILAREGVAAFYKG [SLC25A25]"
  protein stability index: 2.23
- SEQ_TEXT: "WICQRSTVASMMHRQETVDCLKKF [CAMK2D]"
  protein stability index: 2.43
- SEQ_TEXT: "KIASLLGLLSKTAGFSPDCIMDDA [INTS4]"
  protein stability index: 2.19
- SEQ_TEXT: "VSTKEQILDLLVLEQFLSILPKEL [ZSCAN9]"
  protein stability index: 3.02
- SEQ_TEXT: "ANDGDYWRLLNPGEYVVTAKAEGF [CPXM2]"
  protein stability index: 2.87
- SEQ_TEXT: "CPVPAHRRGSWRLPYTDGLSWELL [CTBP1-DT]"
  protein stability index: 2.59
- SEQ_TEXT: "GKVLGKGGFAKCYEMTDLTNNKVY [PLK2]"
  protein stability index: 2.87
- SEQ_TEXT: "SENCPKVISCEFAHNSNWYITFQS [LARP4]"
  protein stability index: 2.08
- SEQ_TEXT: "SNKYGFGYQLSDHTVGVLFNNGAH [PLK2]"
  protein stability index: 2.58
- SEQ_TEXT: "VTHTEISPEQQFDRSVQRLLATRI [TMEM175]"
  protein stability index: 3.34
- SEQ_TEXT: "QTSSSTFGGGSTRGGSLLAGGGGF [KRT15]"
  protein stability index: 3.7
- SEQ_TEXT: "VPEEPPVKKLMRTSTPPPASVINN [ZBED1]"
  protein stability index: 4.94
- SEQ_TEXT: "VSVPENLPVGTQLLTVTATDRDEG [PCDHGA10]"
  protein stability index: 5.27
- SEQ_TEXT: "ISVNGDVITIKSESTFKNTEISFI [FABP4]"
  protein stability index: 2.11
- SEQ_TEXT: "SSKFYDLFLMDLSEGELGGPSEPG [RHOBTB2]"
  protein stability index: 3.25
- SEQ_TEXT: "EQATSLAILRVIRLVRVFRIFKLS [KCNA1]"
  protein stability index: 2.7
- SEQ_TEXT: "VTMSSLFKHILRTEGAFGLYRGLA [SLC25A25]"
  protein stability index: 2.65
- SEQ_TEXT: "YLPSTEFSVSSTSRRIYRCRNCIN [IQUB]"
  protein stability index: 3.61
- SEQ_TEXT: "PAATWNLEEKRLTWRLPDVSEAGG [FCHO1]"
  protein stability index: 4.58
- SEQ_TEXT: "YGFYLRAGSEQKGQIIKDIDSGSP [PDZK1]"
  protein stability index: 3.17
